# study.target: FGFR3 (UniProt P22607)
# Sequence (P22607 whole entry, looked up): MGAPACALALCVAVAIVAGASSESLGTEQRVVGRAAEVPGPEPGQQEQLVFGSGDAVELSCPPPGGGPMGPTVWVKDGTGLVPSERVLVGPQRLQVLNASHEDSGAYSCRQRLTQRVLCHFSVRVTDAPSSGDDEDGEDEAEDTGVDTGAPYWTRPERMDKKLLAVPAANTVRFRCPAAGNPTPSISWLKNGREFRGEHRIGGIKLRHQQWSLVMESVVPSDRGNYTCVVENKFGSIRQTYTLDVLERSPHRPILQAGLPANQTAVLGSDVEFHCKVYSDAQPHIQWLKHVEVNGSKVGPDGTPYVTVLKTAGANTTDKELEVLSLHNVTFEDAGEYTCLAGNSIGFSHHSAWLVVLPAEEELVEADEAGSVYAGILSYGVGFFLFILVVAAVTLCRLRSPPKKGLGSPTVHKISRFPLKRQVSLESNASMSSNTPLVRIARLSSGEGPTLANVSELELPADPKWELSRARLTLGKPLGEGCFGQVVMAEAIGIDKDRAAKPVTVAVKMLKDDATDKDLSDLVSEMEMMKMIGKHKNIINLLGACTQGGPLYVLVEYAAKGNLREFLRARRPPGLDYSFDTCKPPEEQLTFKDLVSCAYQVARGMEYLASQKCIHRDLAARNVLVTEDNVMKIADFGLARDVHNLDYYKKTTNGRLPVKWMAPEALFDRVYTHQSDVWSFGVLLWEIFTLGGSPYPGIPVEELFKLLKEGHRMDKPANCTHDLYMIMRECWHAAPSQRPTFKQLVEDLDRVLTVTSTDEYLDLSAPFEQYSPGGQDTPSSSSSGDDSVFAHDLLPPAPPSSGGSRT
# procedure.summary: phosphorylation enrichment, bacterial display (enrichment ratio); higher = better substrate or ligand; peptides without Tyr show the background;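 note: 11-residue human phosphosite peptides and single-mutation variants displayed on the E. coli surface, counted by deep sequencing, each peptide's frequency after selection divided by its frequency in the unselected input library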;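 note: frequency after pTyr selection over input frequency; kinase dosed for 20-30% of maximal phosphorylation in three min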
Classification field. Basis: phosphorylation enrichment. Definitions: bottom: < 0.7; middle: ≥ 0.7 and < 0.8; top: ≥ 0.8

[
  {
    "sequence.string": "ICFSDYVEVAD [PHACTR1_Y525_R521C]",
    "group.label": "top"
  },
  {
    "sequence.string": "ETKRPYTVILI [SBDS_Y128]",
    "group.label": "middle"
  },
  {
    "sequence.string": "GVRYTYTIDGS [DCX_Y105_I104T]",
    "group.label": "middle"
  },
  {
    "sequence.string": "SDFFAYSPVRE [H6PD_Y449_YF]",
    "group.label": "bottom"
  },
  {
    "sequence.string": "LQTYHYHGHSM [PDHA1_Y289_R288H]",
    "group.label": "top"
  },
  {
    "sequence.string": "LEHCQYVTQKV [ALDOB_Y204_E207Q]",
    "group.label": "middle"
  },
  {
    "sequence.string": "KFMVGYEMIAQ [GALT_Y339_L342I]",
    "group.label": "middle"
  },
  {
    "sequence.string": "FIAVGYVDDSQ [HLA-A_Y51_T55S]",
    "group.label": "bottom"
  },
  {
    "sequence.string": "MPLTEYLKQIK [CNGB3_Y200_R203Q]",
    "group.label": "bottom"
  },
  {
    "sequence.string": "EQAERYDDMAA [YWHAG_Y20]",
    "group.label": "middle"
  },
  {
    "sequence.string": "NREGVYTVFAP [TGFBI_Y537]",
    "group.label": "top"
  },
  {
    "sequence.string": "ERDTVYSSSGV [NELL2_Y350_N347D]",
    "group.label": "bottom"
  },
  {
    "sequence.string": "LLANAYIYDVQ [L1CAM_Y418_V421D]",
    "group.label": "bottom"
  },
  {
    "sequence.string": "SARFHYLMAEK [LDHB_Y173_R172H]",
    "group.label": "middle"
  }
]

---

# study.target: MERTK (UniProt Q12866)
# Sequence (Q12866 whole entry, looked up): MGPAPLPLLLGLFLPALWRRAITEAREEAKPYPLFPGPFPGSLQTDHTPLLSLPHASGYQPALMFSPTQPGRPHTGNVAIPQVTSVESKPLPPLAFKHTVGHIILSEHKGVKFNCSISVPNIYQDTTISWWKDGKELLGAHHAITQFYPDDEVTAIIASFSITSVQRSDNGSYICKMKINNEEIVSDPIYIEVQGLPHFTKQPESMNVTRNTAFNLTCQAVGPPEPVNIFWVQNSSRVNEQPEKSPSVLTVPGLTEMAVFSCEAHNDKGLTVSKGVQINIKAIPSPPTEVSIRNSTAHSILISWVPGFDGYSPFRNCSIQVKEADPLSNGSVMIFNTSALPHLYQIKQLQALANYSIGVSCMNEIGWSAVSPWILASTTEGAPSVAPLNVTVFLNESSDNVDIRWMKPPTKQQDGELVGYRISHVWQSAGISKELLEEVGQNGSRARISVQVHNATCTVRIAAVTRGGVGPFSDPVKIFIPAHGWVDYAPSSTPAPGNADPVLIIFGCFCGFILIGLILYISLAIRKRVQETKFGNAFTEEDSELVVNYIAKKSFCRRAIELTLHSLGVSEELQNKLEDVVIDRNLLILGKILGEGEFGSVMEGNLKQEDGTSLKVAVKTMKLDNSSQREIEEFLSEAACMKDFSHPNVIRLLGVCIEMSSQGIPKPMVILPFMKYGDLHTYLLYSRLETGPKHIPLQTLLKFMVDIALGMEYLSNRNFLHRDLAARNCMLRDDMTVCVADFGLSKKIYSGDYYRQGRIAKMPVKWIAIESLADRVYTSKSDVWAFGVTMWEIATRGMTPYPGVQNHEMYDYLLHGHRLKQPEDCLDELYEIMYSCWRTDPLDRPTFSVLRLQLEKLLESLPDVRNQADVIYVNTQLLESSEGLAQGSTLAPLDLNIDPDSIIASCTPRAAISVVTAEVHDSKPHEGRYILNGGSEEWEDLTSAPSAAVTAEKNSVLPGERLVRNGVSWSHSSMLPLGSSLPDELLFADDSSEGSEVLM
# procedure.summary: phosphorylation enrichment, bacterial display (enrichment ratio); higher = better substrate or ligand; peptides without Tyr show the background
Give condition met when the value for phosphorylation enrichment is at least 0.5. Give condition not met when it is less.

[
  {
    "sequence.string": "EREYKYGAHKY [OAT_Y50_N54K]",
    "group.label": "condition not met"
  },
  {
    "sequence.string": "PPVVNYEQDAR [FER_Y402_E404Q]",
    "group.label": "condition met"
  },
  {
    "sequence.string": "VQNIVYRTASI [CYP39A1_Y102]",
    "group.label": "condition not met"
  },
  {
    "sequence.string": "SNKLTYGTVVF [ACOX1_Y275_M278V]",
    "group.label": "condition not met"
  },
  {
    "sequence.string": "YRVAGYKTQGG [TIA1_Y383_E384K]",
    "group.label": "condition not met"
  },
  {
    "sequence.string": "ISKKIYDTIHD [CTNNA3_Y614]",
    "group.label": "condition not met"
  },
  {
    "sequence.string": "HSGIYYKPESL [L2HGDH_Y103]",
    "group.label": "condition met"
  },
  {
    "sequence.string": "TKDTFYQQPMF [GBA_Y451_K452Q]",
    "group.label": "condition met"
  },
  {
    "sequence.string": "TENAGYFFQVS",
    "group.label": "condition not met"
  },
  {
    "sequence.string": "SSWKLYPRMLR [HAO1_Y50_R46S]",
    "group.label": "condition not met"
  },
  {
    "sequence.string": "QQTFTYDSGIH [JUP_Y22_YF]",
    "group.label": "condition met"
  },
  {
    "sequence.string": "ASRKFYAMKIL [AKT3_Y174_G171R_YF]",
    "group.label": "condition not met"
  },
  {
    "sequence.string": "GREEFYVHFVG [KAT8_Y90_YF]",
    "group.label": "condition met"
  },
  {
    "sequence.string": "KAIMTYVPSFY [ACTN4_Y260_S262P]",
    "group.label": "condition not met"
  },
  {
    "sequence.string": "PEAALYGRFTF [FYN_Y440_I445F]",
    "group.label": "condition met"
  },
  {
    "sequence.string": "EKQARYEIVEE [CDH5_Y223_V227E]",
    "group.label": "condition met"
  },
  {
    "sequence.string": "LFLALYTGLVH [PIGB_Y402]",
    "group.label": "condition met"
  },
  {
    "sequence.string": "VITDYYVDMKF [MPP4_Y567]",
    "group.label": "condition met"
  },
  {
    "sequence.string": "KVALVYGQMNQ [ATP5F1B_Y269_E274Q]",
    "group.label": "condition not met"
  },
  {
    "sequence.string": "SVVVPYAPPEV [TP53_Y220_E221A]",
    "group.label": "condition not met"
  },
  {
    "sequence.string": "TYQYKYPEGSS [TGM4_Y440_E437Q]",
    "group.label": "condition not met"
  },
  {
    "sequence.string": "MTYMFYRENLR [NLRP14_Y443_V441M]",
    "group.label": "condition met"
  },
  {
    "sequence.string": "LSRDVYEEDSF [RET_Y900_YF]",
    "group.label": "condition met"
  },
  {
    "sequence.string": "EEALFYLTRVE [SET_Y119_H118Y_YF]",
    "group.label": "condition not met"
  },
  {
    "sequence.string": "RAILNYIASKF [GSTA3_Y74_YF]",
    "group.label": "condition met"
  },
  {
    "sequence.string": "DFTSRYLSASD [PKHD1_Y828_N830S]",
    "group.label": "condition not met"
  },
  {
    "sequence.string": "PVQAVYQKVVA [HBB_Y131_A130V]",
    "group.label": "condition met"
  }
]
